- study target: rHuR (HuR-Myc-His) (Homo sapiens, UniProt Q15717 1-326)
- Sequence (Q15717 whole entry): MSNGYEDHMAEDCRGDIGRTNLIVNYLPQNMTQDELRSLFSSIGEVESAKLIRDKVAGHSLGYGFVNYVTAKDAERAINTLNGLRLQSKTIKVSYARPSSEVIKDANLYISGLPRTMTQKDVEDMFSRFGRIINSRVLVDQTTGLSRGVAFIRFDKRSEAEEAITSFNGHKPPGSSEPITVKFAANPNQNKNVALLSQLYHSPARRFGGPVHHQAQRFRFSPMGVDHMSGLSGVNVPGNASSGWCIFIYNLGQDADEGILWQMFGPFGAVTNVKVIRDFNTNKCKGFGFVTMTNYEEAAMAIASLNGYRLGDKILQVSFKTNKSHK
- test: AlphaScreen saturation binding; repeat alongside Bi-COX; AlphaScreen: 25 mM HEPES pH 7.4, 100 mM NaCl, 0.1% BSA, room temperature; REMSA: 20 mM HEPES pH 7.5, 50 mM KCl, 0.5 ug BSA, 0.25% glycerol, room temperature, 6% native gel 0.5X TBE at 4 C
- condition summary: protein: recombinant; tags: C-terminal c-Myc and His6; label: 5'-biotin; single strand
pKd: −log10 of the molar value.

{"columns": ["binder", "pKd"],
 "data": [
  ["AUUAUUUAUUAUUUAUUUAUUAUUUA (ssRNA) [Bi-TNF]", 8.56]
]}
